Could you please report measured sfGFP reporter fluorescence for the items listed next?
B1: library; numbered along this chain (parent)
chain: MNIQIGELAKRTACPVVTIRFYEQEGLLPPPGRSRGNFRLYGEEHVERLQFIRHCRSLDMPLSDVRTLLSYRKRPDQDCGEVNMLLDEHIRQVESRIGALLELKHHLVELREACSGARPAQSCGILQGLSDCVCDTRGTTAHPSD

Variants of: B1
TEST DESCRIPTION: sfGFP reporter fluorescence (15 h) (µM FITC); higher = stronger transcriptional activation
STUDY CONDITIONS: library round: Round 1; ligand: 30 µM Zn
One number for each entry.

// worked examples, sfGFP reporter fluorescence included
{"MUTANT DESIGNATION": "D131Y D135P", "sfGFP reporter fluorescence": 0.272}
{"MUTANT DESIGNATION": "D64K E112F", "sfGFP reporter fluorescence": 0.802}
{"MUTANT DESIGNATION": "N83T L107C D135A P143T", "sfGFP reporter fluorescence": 1.85}
{"MUTANT DESIGNATION": "D131S C134V", "sfGFP reporter fluorescence": 1.34}
{"MUTANT DESIGNATION": "L107C D131A", "sfGFP reporter fluorescence": 2.23}
{"MUTANT DESIGNATION": "D131Y D135A", "sfGFP reporter fluorescence": 1.61}
{"MUTANT DESIGNATION": "N83S K104V", "sfGFP reporter fluorescence": 0.405}
{"MUTANT DESIGNATION": "D64K I97A", "sfGFP reporter fluorescence": 2.21}
{"MUTANT DESIGNATION": "M60L P61L", "sfGFP reporter fluorescence": 0.156}
{"MUTANT DESIGNATION": "R111F E112A", "sfGFP reporter fluorescence": 0.22}

Give sfGFP reporter fluorescence for all variants that follow.
1. E109D D135R
2. N83V C134S
3. N83T D131S
4. N83T L107Y
5. P61N D64K K104V L107C G128I

Result:
[0.422, 0.055, 0.146, 0.0947, 1.77]

# batch size: 3; output sfGFP reporter fluorescence per entry
1. N83T C134M
2. M60L P61D D64K
3. E112I D135A

Result:
0.19
1.82
0.176

Items follow; give sfGFP reporter fluorescence for each.
1. L62I K104V
2. D131A D135S
3. N83I D131S

Result:
1. 0.417
2. 0.604
3. 0.0633

# per-item lookup of sfGFP reporter fluorescence; items listed below
1. R96G
2. D135A P143W
3. S115G D131C
4. N83T H89Q
5. D131C D135A
6. H105E
7. E25V R111M
8. D135A P143Y

Result:
0.195
0.372
0.0992
0.258
0.221
0.31
0.152
0.361

Below are some variants; for each one, tell me its sfGFP reporter fluorescence.
1. V108R P143M
2. P15A P61L
3. L107C G128I D131C
4. I125L D131A D135A
5. D131A D135E
6. D64A I97M

Result:
1: 0.376; 2: 0.0794; 3: 1.77; 4: 0.0699; 5: 0.571; 6: 0.507

// for each variant below, give its sfGFP reporter fluorescence
1. D135A P143A
2. L110I D135A

Result:
[0.423, 1.94]

# return sfGFP reporter fluorescence for each item in the list
1. D64K R111L
2. N83T D135A P143A
3. E43Y P61N
4. D64K N83T R111L

Result:
1: 0.898; 2: 0.162; 3: 0.822; 4: 0.532

Consider the following items and state reported sfGFP reporter fluorescence for each.
1. Q121A D135A
2. R111L G128P
3. M84A D131H
4. N83T D135V P143A
5. V16N L58A

Result:
0.743
0.0542
0.463
0.189
0.0591
